These measurements were taken from PubChem BioAssay (NCI).

System: CAKI-1 renal
methodSummary: NCI-60 one-dose screen, 48 h
settings: 10 µM unless noted
Compounds without any hit were thinned out: in the full panel of roughly 83,000, 20% have a hit. Calls of active or inactive are those of the source. How the source made its calls: active means growth percent below 10; inactive means the rest.
Outcomes: 1 = active, -1 = inactive

1) Cc1nn(-c2ccccc2)c(-n2ccnc2)c1/C=N/Nc1nc(-c2ccc(Cl)c(Cl)c2)cs1 ... -1
2) CN1CCN(Cc2ccc(NC(=O)c3cncc(C#Cc4cnccc4C#N)c3)cc2C(F)(F)F)CC1 ... -1
3) O=C(Nc1ccc(F)cc1F)c1cc(F)ccc1O ... 1
4) CC(=O)Oc1ccccc1C(=O)N=C1[Se]CCCN1C(=O)c1ccccc1OC(C)=O ... -1
5) Cc1ccc(/C=N\NC(=O)c2[nH]c3ccc(F)cc3c2-c2ccccc2)cc1 ... 1
6) CCOC(=O)Nc1ccc(-c2nc(-c3cccc(OC)c3)c(-c3ccnc(Br)c3)[nH]2)cc1 ... -1
7) COc1cc(C(=O)c2cnc(-c3c[nH]c4cccc(C)c34)[nH]2)cc(OC)c1OC ... 1
8) CN1CCN(c2ccc(-c3cc4c(Nc5ccc(F)c(Cl)c5)ncnn4c3)cn2)CC1 ... -1
9) Cc1nc(/N=C(\N)NC(=O)Nc2cccc(Cl)c2)sc1C ... -1
10) COc1cccc(Cc2nn3cc(-c4ccccc4)nc3s2)c1 ... -1
11) COc1nc2ccc(C)cc2cc1-c1nc2c(cnn2-c2ccccc2)c(=O)[nH]1 ... -1
12) CN(C)CC#Cc1ccc2ncc(C#N)c(Nc3ccc(F)c(Cl)c3)c2c1 ... -1
13) O=C(/C=C/c1sc(Cl)nc1Cl)c1ccc(F)cc1 ... -1
14) CCCCCCCCCCCCCCCCCCOc1ccccc1CC(=O)OCC[N+](CC)(CC)CC ... -1
15) CCCCn1c(-c2ccc(-c3nc(-c4ccc(Cl)cc4)no3)cc2)nc(-c2ccccc2)c1-c1ccccc1 ... -1
16) CC([C@H]1CCC2C3CCC4C(=O)C(NC=O)=CC[C@]4(C)C3CC[C@@]21C)N(C)C (stereo not given in full) ... -1
17) COc1ccc(/C=N/Nc2cc(=O)[nH]c3ccc(Cl)cc23)cc1 ... -1
18) CCN1C(=O)N(CC)C2Nn3c(s/c(=C\c4ccc([N+](=O)[O-])cc4)c3=O)=NC21 (stereo not given) ... -1
19) NCCCNc1nc2ccccc2c2c(=O)c3cc(F)cc(F)c3sc12 ... -1
20) COc1cc2oc(-c3ccc(O)cc3)cc(=O)c2c(O)c1-c1c(OC)cc(O)c2c(=O)cc(-c3ccc(O)cc3)oc12 ... -1

* * *

System: MOLT-4 leukemia
methodSummary: NCI-60 one-dose screen, 48 h
settings: 10 µM unless noted
Procedure: Growth inhibition of the MOLT-4 human tumor cell line is measured as a screen for anti-cancer activity. Cells are grown in 96 well plates and exposed to the test compound for 48 hours. Compounds are tested at a single concentration, which is 10^-5 M for most compounds. The reported endpoint is percent growth (GI% or GIPRCNT), where numbers from 0 - 100% represent growth inhibition, and numbers from -100% - 0 represent cell death. For example, a value of 40 represents 60% growth inhibition. […]
This is part of a sample that, as a whole, favours compounds with a hit. Of some 83,000 tested, about 20% had one in any assay. Activity calls are given as the source filed them. Rule for the calls: active = growth percent below 10; inactive = the rest.
Outcomes: 1 (yes) (active), 0 (no) (inactive)

1) Cn1cc(-c2cc3ncnc(Nc4ccc(CC(=O)Nc5cc(C(C)(C)C)on5)cc4)c3s2)cn1 ... 0 (no)
2) O=c1c2cc(F)ccc2sc2c(NCCCNCCO)nc3ccccc3c12 ... 1 (yes)
3) O=c1[nH][n+](-c2ccc(Br)cc2)no1 ... 0 (no)
4) COc1cc(C2CC(c3ccc(SC)cc3)=NN2C(C)=O)cc(OC)c1OC (stereo not drawn) ... 0 (no)
5) O=C(CCN1C(=O)/C(=C/c2ccc(O)cc2)SC1=S)Nc1ccccc1 ... 0 (no)
6) COc1cc(C2CC(c3cccc(Br)c3)=NN2C(C)=O)cc(OC)c1OC (stereo not drawn) ... 0 (no)
7) CC(=O)c1ccc(Nc2nc(C(C)=O)c(C)s2)cc1 ... 0 (no)
8) Cc1nc2ccccc2n1-c1ncnc2c1CC(C)c1ccccc1N2C (stereo not drawn) ... 0 (no)
9) COc1c(B(O)O)cc(F)cc1-c1nc2ccc3[nH]ncc3c2c2c1CCCC2 ... 1 (yes)
10) COc1c(C2CC(=O)Nc3c2c(C)nn3-c2nc3ccccc3[nH]2)cc2c(c1OC)OCO2 (stereo not drawn) ... 1 (yes)
11) COc1cc(C(=O)/C=C/c2sc(Cl)nc2Cl)cc(OC)c1OC ... 0 (no)
12) CCCCC[C@H](O)C/C=C1/C(=O)C=C[C@@H]1C/C=C\CCCC(=O)OC ... 0 (no)
13) COc1ccc(C(=O)N=Nc2c(O)n(C)c3ccccc23)cc1 ... 0 (no)
14) COc1ccc2c(c1)/C(=C/c1sc(=S)n(Cc3ccco3)c1O)C=N2 ... 0 (no)
15) COc1cc(C(=O)N2N=C(c3ccc(S(C)(=O)=O)cc3)CC2c2ccco2)cc(OC)c1OC (stereo not drawn) ... 0 (no)
16) Cc1ccc(S(=O)(=O)Oc2ccc(NC(=O)c3ccc(Cl)cc3)cc2)cc1 ... 0 (no)
17) CC(=O)N1CCN(c2ccc(OCC3CO[C@](Cn4ccnc4)(c4ccc(Cl)cc4Cl)O3)cc2)CC1 (stereo partly drawn) ... 0 (no)
18) COc1cc(CNS(=O)(=O)c2ccc(C)cc2)ccc1OCc1cn(-c2ccccc2)nn1 ... 0 (no)
19) CC(=O)CC(c1cccs1)c1c(-c2ccccc2)[nH]c2ccccc12 (stereo not drawn) ... 0 (no)
20) O=C(Nc1c2ccccc2nc2ccccc12)c1ccccc1CN1C(=O)c2ccccc2C1=O ... 0 (no)
21) O=C(Nc1ccc(OS(=O)(=O)c2ccc(F)cc2)cc1)c1ccc(Cl)cc1 ... 0 (no)
22) Cc1nc(/N=C(\N)NC(=O)Nc2ccccc2Cl)sc1C ... 0 (no)
23) Cc1ccc2c(-c3cc(-c4ccccc4)nc(N)c3C#N)cc(=O)oc2c1 ... 0 (no)
24) CC(=O)CC[C@H]1C(=O)N[C@@H](C(C)C)C(=O)N[C@@H](Cc2cc(O)cc(F)c2)C(=O)N2CCC[C@H](N2)C(=O)O[C@H](/C(C)=C/C=C/C(=O)OC(C)(C)C)C/C=C/C=C/[C@H](O)[C@H](C)[C@H]1O ... 0 (no)
25) CN1CCN(c2ccc(-c3cc4c(Nc5ccc(F)c(Cl)c5)ncnn4c3)cn2)CC1 ... 0 (no)
26) N#CC1=C(N)Oc2c(sc3c(Br)cccc23)C1c1ccc(Br)cc1 (stereo not drawn) ... 1 (yes)
27) Cc1ncc(C(=O)Nc2ccc(CN3CCN(C)CC3)c(C(F)(F)F)c2)cc1C#Cc1ccc(N)nc1 ... 0 (no)
28) CCOC(=O)c1cn2ncnc(Oc3ccc(NC(=O)NCCN4CCOCC4)c(Cl)c3)c2c1C ... 0 (no)
29) CCOC(=O)Nc1ccc(-c2nc(-c3cccc(OC)c3)c(-c3ccnc(Br)c3)[nH]2)cc1 ... 0 (no)
30) COc1ccc(-c2nc(NN)c3c(C)nn(-c4ccc(F)cc4)c3n2)cc1 ... 0 (no)
31) Cc1nc(/N=C(\N)NC(=O)Nc2cccc(Cl)c2)sc1C ... 0 (no)
32) CCN1C(=O)N(CC)C2Nn3c(s/c(=C\c4ccc([N+](=O)[O-])cc4)c3=O)=NC21 (stereo not drawn) ... 0 (no)
33) COc1cc2cc(Oc3ccc(NC(=O)Nc4ccc(F)c(C(F)(F)F)c4)cc3)c(C)nc2cc1OCCN1CCOCC1 ... 1 (yes)
34) CCN(CC)CCNc1nc2ccccc2c2c(=O)c3cc(Cl)ccc3sc12 ... 0 (no)
35) CCCCNC(=O)Oc1ccc(/C(=C(\C)c2ccc(Cl)cc2)c2ccc(OCCN(CC)CC)cc2)cc1 ... 0 (no)
36) O=C(S)CNC(=O)c1ccccc1 ... 0 (no)
37) NC[C@@H]1O[C@H](O[C@@H]2[C@@H](CO)OC(O[C@@H]3[C@@H](O)[C@H](N)C[C@H](N)[C@H]3OC3O[C@H](CN)[C@@H](O)[C@H](O)[C@H]3N)[C@@H]2O)[C@H](N)[C@@H](O)[C@@H]1O (stereo partly drawn) ... 0 (no)
38) Cc1nc2ccccc2c(/C=C/c2ccccc2)c1C(=O)/C=C/c1ccc(C(F)(F)F)cc1 ... 1 (yes)

* * *

Test system: SW-620 colon
methodSummary: NCI-60 one-dose screen, 48 h (100 = growth as untreated, 0 = no growth, -100 = all killed)
settings: 10 µM unless noted
Compounds without any hit were thinned out: in the full panel of roughly 83,000, 20% have a hit.
measuredMetric: growth (%)

1. O=C(O)c1cn(C2CC2)c2cc(N3CCN(C(=O)Nc4nc(-c5ccc(Cl)cc5)cs4)CC3)c(F)cc2c1=O ... 20.2
2. CC(=O)c1ccc(Nc2nc(C(C)=O)c(C)s2)cc1 ... 96.2
3. COc1ccc(/C=N/Nc2cc(=O)[nH]c3ccc(C)cc23)cc1 ... 96.8
